target: HLA-A*0201 (Homo sapiens, UniProt P04439, D140Y/D185E/D98H/E176V/E277Q/G131W/G231S/I119V/I121R/I166T/I218V/L300P/L318F/N151K/N90K/P208A/P217A/Q86G/Q94H/R138H/R169H/T345S); experiment: HLA class I binding assay, purified HLA, inhibition of 125I-labelled probe peptide; settings: A*[…], A2 supermotif cross-reactive binding data
pIC50: −log10 of the molar value.
RECORDED METRIC: pIC50

Take a look at these entries with their results.
# MOLECULE, RECORDED METRIC, OBSERVED RESULT
records = [
    ("CSCC[C@H](NC(=O)[C@H](CCC(N)=O)NC(=O)[C@H](CC(C)C)NC(=O)CNC(=O)[C@H](CO)NC(=O)[C@@H](NC(=O)[C@@H](N)[C@@H](C)O)C(C)C)C(=O)N[C@@H](C)C(=O)N[C@H](C(=O)O)C(C)C [Peptide 60.0213]", "pIC50", 6.53),
    ("CC(C)C[C@H](NC(=O)[C@H](Cc1c[nH]c2ccccc12)NC(=O)[C@H](Cc1ccccc1)NC(=O)[C@H](Cc1ccccc1)NC(=O)[C@H](CC(C)C)NC(=O)[C@H](CC(C)C)NC(=O)[C@@H](N)Cc1ccccc1)C(=O)N[C@@H](CC(=O)O)C(=O)N[C@@H](CCCNC(=N)N)C(=O)N[C@@H](CO)C(=O)N[C@H](C(=O)O)C(C)C [Peptide 63.0138]", "pIC50", 7.85),
    ("CC[C@H](C)[C@H](NC(=O)[C@H](CC(=O)O)NC(=O)[C@H](Cc1ccccc1)NC(=O)[C@@H](NC(=O)[C@H](C)N)[C@@H](C)O)C(=O)N[C@@H](CCC(=O)O)C(=O)N[C@@H](CO)C(=O)N[C@@H](CCCCN)C(=O)N[C@H](C(=O)O)C(C)C [Peptide 1418.30]", "pIC50", 6.62),
    ("CC(C)C[C@H](NC(=O)[C@@H](NC(=O)[C@@H](NC(=O)[C@H](Cc1ccccc1)NC(=O)[C@H](CCCCN)NC(=O)[C@H](CC(C)C)NC(=O)[C@H](CCC(=O)O)NC(=O)[C@H](CCCCN)NC(=O)[C@H](C)NC(=O)[C@H](CC(C)C)NC(=O)[C@@H](N)C(C)C)C(C)C)[C@@H](C)O)C(=O)O [Peptide 63.0142]", "pIC50", 8.16),
    ("CSCC[C@H](N)C(=O)N[C@@H](CC(C)C)C(=O)N[C@@H](CC(C)C)C(=O)N[C@@H](CCCNC(=N)N)C(=O)N[C@@H](CC(C)C)C(=O)N[C@@H](CO)C(=O)N[C@@H](CCC(=O)O)C(=O)N1CCC[C@H]1C(=O)N[C@@H](C)C(=O)N[C@@H](CCC(=O)O)C(=O)N[C@H](C(=O)O)C(C)C [Peptide 1389.12]", "pIC50", 6.53),
]

a = CC(C)C[C@H](NC(=O)[C@H](CO)NC(=O)[C@H](C)NC(=O)[C@H](C)NC(=O)[C@H](CCCNC(=N)N)NC(=O)[C@H](C)NC(=O)[C@H](CC(C)C)NC(=O)[C@H](CC(C)C)NC(=O)[C@@H](N)CC(C)C)C(=O)O [Peptide 20.0044]
b = CC(C)[C@H](NC(=O)[C@@H]1CCCN1C(=O)[C@@H](NC(=O)[C@H](C)NC(=O)CNC(=O)[C@@H](NC(=O)[C@H](CS)NC(=O)CNC(=O)[C@@H](NC(=O)[C@@H](N)CO)C(C)C)[C@@H](C)O)C(C)C)C(=O)O [Peptide 1418.35]
-- ask I'm curious, which of these has a smaller pIC50 number: a or b ? Refer to your chosen item by its label in the answer.
-- reply a
